Biological target: S100A5
Experiment: FP; direct
Quick reference for pKd among some binders
# reply with the number alone; pKd is -log10 of concentration in mol/L

These solved cases illustrate the format of a correct answer.
Please report the recorded pKd for NQVRPKLPLLKILHAAGAQ [MDM4 (25-43) peptide] .
4.21

Likewise for RKLQRELEDATETADAMNREVSSLKNKLRRGDLPFVVPRRMARK [NMIIA (1894-1937) peptide] ?
5.24

Do the same for VLQTWLQDLLRRGLVRAAQ [TRPM4 (129-147) peptide] please
6.22

Same lookup for TRTKIDWNKILS [CapZ (265-276) peptide] , please.
5.33

Can you check SEGLMNVLKKIYEDG [SIP (188-202) peptide] next?
4.38

Proceed to the following item.
Sample RRLLFYKYVYKR [NCX1 (254-265) peptide] — what was its pKd?
5.34
